Answer each item with its documented IC50.
tested-system: Ephrin type-B receptor 2 (Mus musculus, UniProt P54763)
Sequence (P54763 whole entry): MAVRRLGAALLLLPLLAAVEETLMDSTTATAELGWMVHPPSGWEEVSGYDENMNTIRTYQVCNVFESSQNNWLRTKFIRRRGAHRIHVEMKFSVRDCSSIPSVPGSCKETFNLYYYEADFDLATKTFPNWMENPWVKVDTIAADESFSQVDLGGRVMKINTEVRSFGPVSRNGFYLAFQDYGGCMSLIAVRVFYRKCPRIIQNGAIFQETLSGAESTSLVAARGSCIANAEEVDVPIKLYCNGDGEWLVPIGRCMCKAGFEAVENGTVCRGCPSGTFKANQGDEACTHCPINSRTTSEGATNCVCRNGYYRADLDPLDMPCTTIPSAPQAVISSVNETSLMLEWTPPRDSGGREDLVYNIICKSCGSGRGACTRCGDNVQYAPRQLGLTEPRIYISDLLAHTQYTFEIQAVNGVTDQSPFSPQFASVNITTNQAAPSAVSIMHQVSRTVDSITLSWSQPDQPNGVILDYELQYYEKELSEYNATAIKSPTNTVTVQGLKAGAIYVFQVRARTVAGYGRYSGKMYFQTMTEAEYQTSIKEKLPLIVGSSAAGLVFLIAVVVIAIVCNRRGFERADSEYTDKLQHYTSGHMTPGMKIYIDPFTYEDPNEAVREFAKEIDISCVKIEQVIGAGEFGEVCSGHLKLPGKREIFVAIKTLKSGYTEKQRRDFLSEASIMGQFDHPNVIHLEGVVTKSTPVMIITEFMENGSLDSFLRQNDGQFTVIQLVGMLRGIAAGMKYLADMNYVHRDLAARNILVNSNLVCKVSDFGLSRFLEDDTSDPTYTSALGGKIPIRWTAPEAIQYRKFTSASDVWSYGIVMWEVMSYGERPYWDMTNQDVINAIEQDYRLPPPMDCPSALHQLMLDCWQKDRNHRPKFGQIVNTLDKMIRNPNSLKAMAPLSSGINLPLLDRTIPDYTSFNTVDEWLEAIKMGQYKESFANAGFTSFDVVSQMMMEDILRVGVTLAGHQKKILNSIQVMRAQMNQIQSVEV
protocol-summary: Displacement of biotinylated Fc-tagged ephrin-B1 from recombinant N/C-terminal 6-his tagged mouse EphB2 (Val27 to Lys548 residues) preincubated for 1 hr followed by ephrin-B1-Fc addition and measured after 4 to 5 hrs by ELISA assay

Input line: # query: IC50 | item C[C@H](CCC(=O)N[C@H](CC(=O)O)Cc1cn(S(=O)(=O)c2ccc(C(F)(F)F)cc2)c2ccccc12)[C@H]1CC[C@H]2[C@@H]3CC=C4C[C@@H](O)CC[C@]4(C)[C@H]3CC[C@]12C | system: Ephrin type-B receptor 2 (Mus musculus, UniProt P54763)
Output line: > 30 µM

Input line: # query: IC50 | item C[C@H](CCC(=O)N[C@H](CC(=O)O)Cc1cn(S(=O)(=O)c2ccccc2)c2ccccc12)[C@H]1CC[C@H]2[C@@H]3CC=C4C[C@@H](O)CC[C@]4(C)[C@H]3CC[C@]12C | system: Ephrin type-B receptor 2 (Mus musculus, UniProt P54763)
Output line: > 30 µM
